Where these numbers come from: ChEMBL document CHEMBL1129258

# target desc: DNA gyrase (Escherichia coli) (UniProt P0AES6+P0AES4)
# test summary: In vitro antibacterial activity against gram-positive organism Enterococcus faecium ATCC 8043
# Format: functional
Cut-off 0.2 µg/mL on MIC: below means Yes, at or above means No.

Use the examples below as a reference point.
Cc1c(F)c(N2CCC(N)C2)cc2c(C3CC3)cc(C(=O)O)c(=O)n12 (centres undefined); No
Cc1c(N2C[C@@H]3CCCN[C@@H]3C2)c(F)cn2c(=O)c(C(=O)O)cc(C3CC3)c12 (stereo in doubt; 45n); Yes
O=C(O)c1cc(C2CC2)c2nc(N3CCOCC3)c(F)cn2c1=O; No

# TODO verify MIC < 0.2 µg/mL strictly for this compound: Cc1c(N2CC[C@H](N)C2)c(F)cn2c(=O)c(C(=O)O)cc(C3CC3)c12
Yes

# TODO verify MIC < 0.2 µg/mL strictly for this compound: Cc1c(N2C[C@H]3CCC[C@@H](N)[C@H]3C2)c(F)cn2c(=O)c(C(=O)O)cc(C3CC3)c12
Yes

# TODO verify MIC < 0.2 µg/mL strictly for this compound: O=C(O)c1cc(-c2ccc(F)cc2F)c2nc(N3CCC(O)C3)c(F)cn2c1=O (centres undefined)
No

# TODO verify MIC < 0.2 µg/mL strictly for this compound: CO[C@@H]1CN(c2c(F)cn3c(=O)c(C(=O)O)cc(C4CC4)c3c2C)C[C@H]1N
No

----------
The entries below come with measured MIC values attached.
# target desc: DNA gyrase (Escherichia coli) (UniProt P0AES6+P0AES4)
# test summary: In vitro antibacterial activity against gram-positive organism Streptococcus bovis A-5169
# Assay type: functional
# condition summary: Streptococcus equinus
Field format: number, assumed µg/mL, no unit text.

Record excerpt, results attached:
CN1CCN(c2nc3c(-c4ccc(F)cc4F)cc(C(=O)O)c(=O)n3cc2F)CC1; 12.5
COc1ccc(-c2cc(C(=O)O)c(=O)n3cc(F)c(N4CCC(N)C4)nc23)cc1 (stereo unspecified); 25

Which MIC is listed for Cc1c(N2CCCNCC2)c(F)cn2c(=O)c(C(=O)O)cc(C3CC3)c12 ?
0.78

Which MIC is listed for CC(=O)N[C@H]1C[C@H](C)N(c2nc3c(-c4ccc(F)cc4F)cc(C(=O)O)c(=O)n3cc2F)C1 ?
3.1

Which MIC is listed for Cc1c(N2C[C@H]3CCC[C@H](N)[C@H]3C2)c(F)cn2c(=O)c(C(=O)O)cc(C3CC3)c12 ?
0.01

Which MIC is listed for Cc1c(N2CCC(N)C2)c(F)cn2c(=O)c(C(=O)O)cc(C3CC3)c12 (stereo unspecified) ?
0.02

----------
# target desc: DNA gyrase (Escherichia coli) (UniProt P0AES6+P0AES4)
# test summary: In vivo efficacy against Escherichia coli JUHL by subcutaneous administration
# Assay type: functional, organism-based
# condition summary: Escherichia coli K-12
The entries below come with measured ED50 values attached.
Field format: number, assumed mg/kg, no unit text.

Record excerpt, results attached:
Cc1c(N2CC[C@@H]3CNC[C@@H]32)c(F)cn2c(=O)c(C(=O)O)cc(C3CC3)c12; 1.1
Cc1c(N2CC[C@@H]([C@H](C)N)C2)c(F)cn2c(=O)c(C(=O)O)cc(C3CC3)c12; 0.5

Which ED50 is listed for NC1CCN(c2nc3c(-c4ccc(F)cc4F)cc(C(=O)O)c(=O)n3cc2F)C1 (centres undefined) ?
1
